The measured values listed here are drawn from patent US20250163162A1.

Target: T1, IL10Rα/IL2Rγ receptor (human) (UniProt Q13651)
T1 sequence (looked up) 1: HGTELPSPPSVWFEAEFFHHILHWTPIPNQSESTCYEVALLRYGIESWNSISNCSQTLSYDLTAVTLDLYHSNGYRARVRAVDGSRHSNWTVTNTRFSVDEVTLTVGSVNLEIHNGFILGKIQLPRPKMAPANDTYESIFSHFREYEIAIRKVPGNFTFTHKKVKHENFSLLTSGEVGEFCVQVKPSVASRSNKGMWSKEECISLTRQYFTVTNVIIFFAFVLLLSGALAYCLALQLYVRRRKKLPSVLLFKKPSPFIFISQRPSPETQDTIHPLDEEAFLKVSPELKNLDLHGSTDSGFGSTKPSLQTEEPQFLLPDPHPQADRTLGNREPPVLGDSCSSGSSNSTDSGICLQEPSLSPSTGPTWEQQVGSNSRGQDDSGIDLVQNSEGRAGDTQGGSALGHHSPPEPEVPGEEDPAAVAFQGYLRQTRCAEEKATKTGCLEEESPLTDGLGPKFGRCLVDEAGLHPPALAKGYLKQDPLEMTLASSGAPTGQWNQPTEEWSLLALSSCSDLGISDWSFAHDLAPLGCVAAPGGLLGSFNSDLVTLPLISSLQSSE
T1 sequence (looked up) 2: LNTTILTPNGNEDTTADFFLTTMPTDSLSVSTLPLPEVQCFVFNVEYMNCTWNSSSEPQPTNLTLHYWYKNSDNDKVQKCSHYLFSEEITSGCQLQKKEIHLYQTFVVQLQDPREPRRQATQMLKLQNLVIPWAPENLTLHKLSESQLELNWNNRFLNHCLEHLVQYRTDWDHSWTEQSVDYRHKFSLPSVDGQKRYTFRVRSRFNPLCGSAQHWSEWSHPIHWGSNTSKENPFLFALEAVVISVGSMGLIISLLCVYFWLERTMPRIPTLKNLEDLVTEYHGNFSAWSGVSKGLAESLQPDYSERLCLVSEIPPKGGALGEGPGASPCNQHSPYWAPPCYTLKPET
Assay: cell-based or functional assay
Here the recorded IL-9 secretion, CD8 T cells, at 0.0001 µM is given for each entry.
recorded.endpoint: IL-9 secretion, CD8 T cells, at 0.0001 µM (pg/mL)

>  <binder>
hIL10Ra_VHH14 - hIL2Rg_VHH19, linker GGGSGGGS, tag his (bispecific antibody, not shown: small tags and cut ends) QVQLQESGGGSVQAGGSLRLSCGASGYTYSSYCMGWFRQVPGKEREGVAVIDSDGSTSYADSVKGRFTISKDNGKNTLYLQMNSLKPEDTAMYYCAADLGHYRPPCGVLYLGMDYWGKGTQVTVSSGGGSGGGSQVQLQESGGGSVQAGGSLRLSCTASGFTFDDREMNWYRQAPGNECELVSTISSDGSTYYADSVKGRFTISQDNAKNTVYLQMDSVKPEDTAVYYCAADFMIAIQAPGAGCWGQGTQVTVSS

>  <result.value>
988

$$$$
>  <binder>
hIL10Ra_VHH14 - hIL2Rg_VHH19, No linker, tag his (bispecific antibody, not shown: small tags and cut ends) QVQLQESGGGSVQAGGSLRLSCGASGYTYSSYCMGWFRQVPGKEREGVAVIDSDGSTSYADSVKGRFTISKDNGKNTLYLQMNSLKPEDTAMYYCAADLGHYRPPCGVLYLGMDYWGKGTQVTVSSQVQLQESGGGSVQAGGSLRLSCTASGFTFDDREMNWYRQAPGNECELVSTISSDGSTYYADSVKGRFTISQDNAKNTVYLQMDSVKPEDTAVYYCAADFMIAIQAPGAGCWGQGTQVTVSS

>  <result.value>
933

$$$$
>  <binder>
hIL10Ra_VHH14 - hIL2Rg_VHH19, linker …, tag his (bispecific antibody, not shown: small tags and cut ends) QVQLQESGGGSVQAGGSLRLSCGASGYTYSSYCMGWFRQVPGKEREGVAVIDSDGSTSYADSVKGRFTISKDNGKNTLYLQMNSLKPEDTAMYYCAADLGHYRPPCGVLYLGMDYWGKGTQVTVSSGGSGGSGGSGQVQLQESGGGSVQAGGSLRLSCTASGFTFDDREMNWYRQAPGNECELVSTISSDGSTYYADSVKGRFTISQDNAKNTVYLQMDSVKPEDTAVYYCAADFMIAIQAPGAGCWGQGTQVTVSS

>  <result.value>
1010

$$$$
